Test system: 282377-053-R-J1-PDC complex spheroids, viability
ASSAY_DETAILS: Anticancer human tumor 282377-053-R-J1-PDC patient-derived colon adenocarcinoma cell line growth inhibition [GQUAD]
RUN_CONDITIONS: second compound 0.1 µM; first compound 0.1 µM; stronger effect = lower value
Description: DNA G-quadruplex Stabilizer Agents in Combinations in Complex Spheroids A high-throughput screen of multi-cell type tumor spheroids was designed to identify active combinations of DNA G-quadruplex stabilizer agents and targeted small molecules. […] Compounds. […] If the clinical Cmax for an agent had not been determined, the highest concentration tested was 10 microM. […]
PROPERTY_LABEL: viability, T/C (%)
I only need the number, in %, no unit after it.

- MOLECULE: "O=c1[nH]cc(F)c(=O)[nH]1 + Cc1[nH]c2ccc(F)cc2c1-c1nc2c3cccnc3c3ncccc3c2[nH]1"
  viability, T/C (%): 111
- MOLECULE: "CC1COCCN1c1cc(C2(O)CC3CCC(C2)O3)c2cnn(-c3ccn[nH]3)c2n1 (stereo unspecified) + Cc1cnc(CNC(=O)c2c(=O)c3ccc(N4CCCN(C)CC4)nc3n3c2sc2ccccc23)cn1"
  viability, T/C (%): 41.3
- MOLECULE: "O=C(NO)c1cnc(N2CCN(S(=O)(=O)c3ccc4ccccc4c3)CC2)nc1 + Cc1cnc(CNC(=O)c2c(=O)c3ccc(N4CCCN(C)CC4)nc3n3c2sc2ccccc23)cn1"
  viability, T/C (%): 88

viability, T/C for Nc1ccn(C2OC(CO)C(O)C2(F)F)c(=O)n1 (stereo unspecified) + CN(C)c1ccc(Nc2c3ccc(NC(=O)CCN4CCCC4)cc3nc3cc(NC(=O)CCN4CCCC4)ccc23)cc1 is 78.7

viability, T/C for O=C(NO)c1cnc(N2CCN(S(=O)(=O)c3ccc4ccccc4c3)CC2)nc1 + CN(C)c1ccc(Nc2c3ccc(NC(=O)CCN4CCCC4)cc3nc3cc(NC(=O)CCN4CCCC4)ccc23)cc1 is 93.4

viability, T/C for CC1COCCN1c1cc(C2(S(C)(=N)=O)CC2)nc(-c2ccnc3[nH]ccc23)n1 (stereo unspecified) + CN(C)c1ccc(Nc2c3ccc(NC(=O)CCN4CCCC4)cc3nc3cc(NC(=O)CCN4CCCC4)ccc23)cc1 is 77.2

====

# key: entry, value: viability, T/C
System: 282377-053-R-J1-PDC complex spheroids, viability
ASSAY_DETAILS: Anticancer human tumor 282377-053-R-J1-PDC cell line growth inhibition [GQUAD];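 also: spheroids exposed to compounds for 7 days before readout; percent of vehicle DMSO control viability with 100% = untreated-like growth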
RUN_CONDITIONS: second compound 10 µM; first compound 1 µM; stronger effect = lower value
I only need the number, in %, no unit after it.

- COMPOUND: "O=c1[nH]cc(F)c(=O)[nH]1 + Cc1cnc(CNC(=O)c2c(=O)c3ccc(N4CCCN(C)CC4)nc3n3c2sc2ccccc23)cn1"
  viability, T/C (%): 52.5
- COMPOUND: "CC1COCCN1c1cc(-c2ccnn2C)c2ccnc(-c3ccn[nH]3)c2n1 (stereo not drawn) + CN(C)c1ccc(Nc2c3ccc(NC(=O)CCN4CCCC4)cc3nc3cc(NC(=O)CCN4CCCC4)ccc23)cc1"
  viability, T/C (%): 42.7

Below: the item to evaluate.
viability, T/C for CC1COCCN1c1cc(-c2ccnn2C)c2ccnc(-c3ccn[nH]3)c2n1 (stereo not drawn) + Cc1cnc(CNC(=O)c2c(=O)c3ccc(N4CCCN(C)CC4)nc3n3c2sc2ccccc23)cn1 is 23

====

Tested on: 282377-053-R-J1-PDC complex spheroids, viability
ASSAY_DETAILS: Anticancer human tumor 282377-053-R-J1-PDC cell line growth inhibition [GQUAD];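 also: spheroids exposed to compounds for 7 days before readout; percent of vehicle DMSO control viability with 100% = untreated-like growth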
RUN_CONDITIONS: second compound 3.16 µM; first compound 3.16 µM; stronger effect = lower value
# key: entry, value: viability, T/C
I only need the number, in %, no unit after it.

- MOLECULE: "O=c1[nH]cc(F)c(=O)[nH]1 + CN(C)c1ccc(Nc2c3ccc(NC(=O)CCN4CCCC4)cc3nc3cc(NC(=O)CCN4CCCC4)ccc23)cc1"
  viability, T/C [%]: 68.2
- MOLECULE: "Cc1cccc(N(C)C(=O)C2C(O)CCN2c2nc(C)cc(C(F)(F)F)c2C#N)c1 (stereo not given) + Cc1cnc(CNC(=O)c2c(=O)c3ccc(N4CCCN(C)CC4)nc3n3c2sc2ccccc23)cn1"
  viability, T/C [%]: 56.6
- MOLECULE: "C=CCn1c(=O)c2cnc(Nc3ccc(N4CCN(C)CC4)cc3)nc2n1-c1cccc(C(C)(C)O)n1 + CN(C)c1ccc(Nc2c3ccc(NC(=O)CCN4CCCC4)cc3nc3cc(NC(=O)CCN4CCCC4)ccc23)cc1"
  viability, T/C [%]: 31.8
- MOLECULE: "COc1cc(C2c3cc4c(cc3C(OC3OC5COC(C)OC5C(O)C3O)C3COC(=O)C23)OCO4)cc(OC)c1O (stereo not given) + Cc1cnc(CNC(=O)c2c(=O)c3ccc(N4CCCN(C)CC4)nc3n3c2sc2ccccc23)cn1"
  viability, T/C [%]: 52.1
- MOLECULE: "CC(=O)O[C@H]1C(=O)[C@@]2(C)[C@H]([C@H](OC(=O)c3ccccc3)[C@]3(O)C[C@H](OC(=O)[C@H](O)[C@@H](NC(=O)c4ccccc4)c4ccccc4)C(C)=C1C3(C)C)[C@]1(OC(C)=O)CO[C@@H]1C[C@@H]2O + CN(C)c1ccc(Nc2c3ccc(NC(=O)CCN4CCCC4)cc3nc3cc(NC(=O)CCN4CCCC4)ccc23)cc1"
  viability, T/C [%]: 19.2

viability, T/C for O=C(NO)c1cnc(N2CCN(S(=O)(=O)c3ccc4ccccc4c3)CC2)nc1 + CN(C)c1ccc(Nc2c3ccc(NC(=O)CCN4CCCC4)cc3nc3cc(NC(=O)CCN4CCCC4)ccc23)cc1 is 0.14

viability, T/C for C=CC(=O)N1CCN(c2nc(=O)n(-c3c(C)ccnc3C(C)C)c3nc(-c4c(O)cccc4F)c(F)cc23)C(C)C1 (stereo not given) + Cc1[nH]c2ccc(F)cc2c1-c1nc2c3cccnc3c3ncccc3c2[nH]1 is 98.4

viability, T/C for O=C(c1cc(Cc2n[nH]c(=O)c3ccccc23)ccc1F)N1CCN(C(=O)C2CC2)CC1 + Cc1cnc(CNC(=O)c2c(=O)c3ccc(N4CCCN(C)CC4)nc3n3c2sc2ccccc23)cn1 is 46.2

viability, T/C for C#Cc1c(F)ccc2cc(O)cc(-c3ncc4c(N5CC6CCC(C5)N6)nc(OCC56CCCN5CC(F)C6)nc4c3F)c12 (stereo not given) + CN(C)c1ccc(Nc2c3ccc(NC(=O)CCN4CCCC4)cc3nc3cc(NC(=O)CCN4CCCC4)ccc23)cc1 is 91.7

viability, T/C for O=C(NO)c1cnc(N2CCN(S(=O)(=O)c3ccc4ccccc4c3)CC2)nc1 + Cc1[nH]c2ccc(F)cc2c1-c1nc2c3cccnc3c3ncccc3c2[nH]1 is 6.61

====

# key: entry, value: viability, T/C
Tested on: 282377-053-R-J1-PDC complex spheroids, viability
ASSAY_DETAILS: Anticancer human tumor 282377-053-R-J1-PDC cell line growth inhibition [GQUAD];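 also: spheroids exposed to compounds for 7 days before readout; percent of vehicle DMSO control viability with 100% = untreated-like growth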
RUN_CONDITIONS: second compound 0.1 µM; first compound 0.1 µM; stronger effect = lower value
I only need the number, in %, no unit after it.

Example entries and their recorded answers appear below.
- COMPOUND: "C=CC(=O)N1CCN(c2nc(=O)n(-c3c(C)ccnc3C(C)C)c3nc(-c4c(O)cccc4F)c(F)cc23)C(C)C1 (stereo unspecified) + CN(C)c1ccc(Nc2c3ccc(NC(=O)CCN4CCCC4)cc3nc3cc(NC(=O)CCN4CCCC4)ccc23)cc1"
  TARGET_OR_TEST_SYSTEM: "282377-053-R-J1-PDC complex spheroids, viability"
  viability, T/C, %: 94.5
- COMPOUND: "O=c1[nH]cc(F)c(=O)[nH]1 + CN(C)c1ccc(Nc2c3ccc(NC(=O)CCN4CCCC4)cc3nc3cc(NC(=O)CCN4CCCC4)ccc23)cc1"
  TARGET_OR_TEST_SYSTEM: "282377-053-R-J1-PDC complex spheroids, viability"
  viability, T/C, %: 93.1
- COMPOUND: "COc1ncnc(C2CC2)c1-c1ncc2cnn(Cc3ccc(-c4nc(C(F)(F)F)cn4C(C)C)cc3)c2n1 + Cc1[nH]c2ccc(F)cc2c1-c1nc2c3cccnc3c3ncccc3c2[nH]1"
  TARGET_OR_TEST_SYSTEM: "282377-053-R-J1-PDC complex spheroids, viability"
  viability, T/C, %: 107
- COMPOUND: "CCCS(=O)(=O)Nc1ccc(F)c(C(=O)c2c[nH]c3ncc(-c4ccc(Cl)cc4)cc23)c1F + CN(C)c1ccc(Nc2c3ccc(NC(=O)CCN4CCCC4)cc3nc3cc(NC(=O)CCN4CCCC4)ccc23)cc1"
  TARGET_OR_TEST_SYSTEM: "282377-053-R-J1-PDC complex spheroids, viability"
  viability, T/C, %: 56
- COMPOUND: "CC1COCCN1c1cc(C2(S(C)(=N)=O)CC2)nc(-c2ccnc3[nH]ccc23)n1 (stereo unspecified) + Cc1cnc(CNC(=O)c2c(=O)c3ccc(N4CCCN(C)CC4)nc3n3c2sc2ccccc23)cn1"
  TARGET_OR_TEST_SYSTEM: "282377-053-R-J1-PDC complex spheroids, viability"
  viability, T/C, %: 115
- COMPOUND: "C=CC(=O)N1CCN(c2nc(=O)n(-c3c(C)ccnc3C(C)C)c3nc(-c4c(O)cccc4F)c(F)cc23)C(C)C1 (stereo unspecified) + Cc1[nH]c2ccc(F)cc2c1-c1nc2c3cccnc3c3ncccc3c2[nH]1"
  TARGET_OR_TEST_SYSTEM: "282377-053-R-J1-PDC complex spheroids, viability"
  viability, T/C, %: 110

viability, T/C for Cc1cccc(N(C)C(=O)C2C(O)CCN2c2nc(C)cc(C(F)(F)F)c2C#N)c1 (stereo unspecified) + Cc1cnc(CNC(=O)c2c(=O)c3ccc(N4CCCN(C)CC4)nc3n3c2sc2ccccc23)cn1 is 99.3

viability, T/C for O=C(c1cc(Cc2n[nH]c(=O)c3ccccc23)ccc1F)N1CCN(C(=O)C2CC2)CC1 + Cc1[nH]c2ccc(F)cc2c1-c1nc2c3cccnc3c3ncccc3c2[nH]1 is 98.6

viability, T/C for COc1ccc([C@@H](O)c2cc(-c3ncnc4cc(N5CCOCC5)ccc34)c(F)cc2Cl)nn1 + Cc1[nH]c2ccc(F)cc2c1-c1nc2c3cccnc3c3ncccc3c2[nH]1 is 101

viability, T/C for CC1COCCN1c1cc(-c2ccnn2C)c2ccnc(-c3ccn[nH]3)c2n1 (stereo unspecified) + Cc1[nH]c2ccc(F)cc2c1-c1nc2c3cccnc3c3ncccc3c2[nH]1 is 85

viability, T/C for COc1cc(C2c3cc4c(cc3C(OC3OC5COC(C)OC5C(O)C3O)C3COC(=O)C23)OCO4)cc(OC)c1O (stereo unspecified) + Cc1[nH]c2ccc(F)cc2c1-c1nc2c3cccnc3c3ncccc3c2[nH]1 is 108

viability, T/C for CC(C)(O)C1CCC(Nc2ccc3ncc(-c4cccc(C(F)(F)F)c4)n3n2)CC1 (stereo unspecified) + CN(C)c1ccc(Nc2c3ccc(NC(=O)CCN4CCCC4)cc3nc3cc(NC(=O)CCN4CCCC4)ccc23)cc1 is 85
